Assignment: determine reported Fold change related to DMSO control, WT for the given compounds.
System Under Test: STING variants (WT) (Homo sapiens, UniProt Q86WV6)
Construct: host or cells: HEK-Blue ISG KO-STING cells (Invivogen, hkb-kostg)
Assay Info: SEAP reporter assay in HEK-Blue ISG KO-STING cells transfected with STING WT variant (Method 2, 1 ng vector)
Assay type: cell-based
Details: compound concentration 2.5 (mM as printed); 24 h; SEAP signal ratio to 0.5% DMSO
# output: bare number, implied unit fold

Supply recorded Fold change related to DMSO control, WT for CCn1nc(C)cc1C(=O)Nc1nc2cc(C(N)=O)cc3c2n1CCCO3 here. 1.34

Supply recorded Fold change related to DMSO control, WT for CCn1nc(C)c(Br)c1C(=O)Nc1nc2cc(C(N)=O)cc3c2n1CC(C)(C)CO3 here. 1.41

Supply recorded Fold change related to DMSO control, WT for CCn1nc(C)cc1C(=O)Nc1nc2cc(C(N)=O)cc3c2n1CC(C)(C)CN3C here. 9.81

Supply recorded Fold change related to DMSO control, WT for CCn1nc(C)c(Cl)c1C(=O)Nc1nc2cc(C(N)=O)cc3c2n1CC(C)(C)CO3 here. 1.18

Supply recorded Fold change related to DMSO control, WT for CCn1nc(C)cc1C(=O)Nc1nc2cc(C(N)=O)cc3c2n1C[C@@H](C)CO3 here. 2.37

Supply recorded Fold change related to DMSO control, WT for CC[C@H]1COc2cc(C(N)=O)cc3nc(NC(=O)c4c(Br)c(C)nn4CC)n1c23 here. 1.49

Supply recorded Fold change related to DMSO control, WT for CCn1nc(C)c(F)c1C(=O)Nc1nc2cc(C(N)=O)cc3c2n1CC1(CC1)CO3 here. 1.53

Supply recorded Fold change related to DMSO control, WT for CCn1nc(C)cc1C(=O)Nc1nc2cc(C(N)=O)cc3c2n1CC1(CC1)CO3 here. 1.90

Supply recorded Fold change related to DMSO control, WT for CCn1nc(C)cc1C(=O)Nc1nc2cc(C(N)=O)cc3c2n1CC(F)(F)CO3 here. 1.53

Supply recorded Fold change related to DMSO control, WT for CCn1nc(C)c(F)c1C(=O)Nc1nc2cc(C(N)=O)cc3c2n1[C@@H](C)CCO3 here. 2.10

Supply recorded Fold change related to DMSO control, WT for CCn1nc(C)c(Br)c1C(=O)Nc1nc2cc(C(N)=O)cc3c2n1[C@@H](C(C)C)CO3 here. 1.16

Supply recorded Fold change related to DMSO control, WT for CCn1nc(C)cc1C(=O)Nc1nc2cc(C(N)=O)cc3c2n1CC1(COC1)CO3 here. 1.22

Supply recorded Fold change related to DMSO control, WT for CCn1nc(C)c(F)c1C(=O)Nc1nc2cc(C(N)=O)cc3c2n1CC1(COC1)CO3 here. 1.24

Supply recorded Fold change related to DMSO control, WT for CCn1nc(C)cc1C(=O)Nc1nc2cc(C(N)=O)cc3c2n1[C@@H](CO)CO3 here. 1.06

Supply recorded Fold change related to DMSO control, WT for CCn1nc(C)c(F)c1C(=O)Nc1nc2cc(C(N)=O)cc3c2n1CC(C)(C)CO3 here. 2.48

Supply recorded Fold change related to DMSO control, WT for CC[C@H]1COc2cc(C(N)=O)cc3nc(NC(=O)c4c(F)c(C)nn4CC)n1c23 here. 6.91

Supply recorded Fold change related to DMSO control, WT for CCn1nc(C)cc1C(=O)Nc1nc2cc(C(N)=O)cc3c2n1CC(C)(C)CN3 here. 7.90

Supply recorded Fold change related to DMSO control, WT for C=Cc1c(C)nn(CC)c1C(=O)Nc1nc2cc(C(N)=O)cc3c2n1[C@@H](CCCN)CO3 here. 0.79

Supply recorded Fold change related to DMSO control, WT for CCn1nc(C)cc1C(=O)Nc1nc2cc(C(N)=O)cc3c2n1C[C@H](C)CO3 here. 2.97

Supply recorded Fold change related to DMSO control, WT for CCn1nc(C)cc1C(=O)Nc1nc2cc(C(N)=O)cc3c2n1[C@@H](C)CCO3 here. 1.84

Supply recorded Fold change related to DMSO control, WT for CC[C@H]1COc2cc(C(N)=O)cc3nc(NC(=O)c4c(Cl)c(C)nn4CC)n1c23 here. 1.85

Supply recorded Fold change related to DMSO control, WT for CCn1nc(C)cc1C(=O)Nc1nc2cc(C(N)=O)cc3c2n1CCCN3C here. 6.55

Supply recorded Fold change related to DMSO control, WT for CCn1nc(C)c(F)c1C(=O)Nc1nc2cc(C(N)=O)cc3c2n1CCCN3C here. 7.15

Supply recorded Fold change related to DMSO control, WT for CCn1nc(C)c(Cl)c1C(=O)Nc1nc2cc(C(N)=O)cc3c2n1[C@@H](C(C)C)CO3 here. 1.38

Supply recorded Fold change related to DMSO control, WT for C=CCCCn1nc(C)cc1C(=O)Nc1nc2cc(C(N)=O)cc3c2n1[C@@H](CCCN)CO3 here. 0.83

* * *

System Under Test: STING (Homo sapiens, UniProt Q86WV6, G230A/H232R/R293Q/R71H)
Construct: THP1 was purchased from National Collection of Authenticated Cell Cultures (Cat #TCHu 57)
Sequence (Q86WV6 whole entry R71H/G230A/H232R/R293Q): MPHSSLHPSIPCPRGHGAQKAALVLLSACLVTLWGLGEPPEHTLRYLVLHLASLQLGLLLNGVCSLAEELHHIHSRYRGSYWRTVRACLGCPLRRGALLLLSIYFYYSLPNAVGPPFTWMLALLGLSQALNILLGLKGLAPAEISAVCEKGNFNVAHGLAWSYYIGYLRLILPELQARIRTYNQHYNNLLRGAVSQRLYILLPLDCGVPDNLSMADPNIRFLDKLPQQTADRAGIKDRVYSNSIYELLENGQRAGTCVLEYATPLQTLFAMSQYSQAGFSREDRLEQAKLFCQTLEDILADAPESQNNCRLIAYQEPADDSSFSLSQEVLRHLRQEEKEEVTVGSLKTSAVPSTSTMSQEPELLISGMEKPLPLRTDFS
Assay Info: IFNβ release from THP1 by STING activation (hIFNβ ELISA)
Details: THP1 cells, 24 h, IFN-β in supernatant; inactive = IFNβ not detected at the maximum concentration of compounds
Assignment: determine reported EC50 for the given compounds.

Send back STING (Homo sapiens, UniProt Q86WV6, G230A/H232R/R293Q/R71H) EC50 of CCn1nc(C)cc1C(=O)Nc1nc2cc(C(N)=O)cc3c2n1C[C@H](C)CO3 only. > 17.6 µM

Send back STING (Homo sapiens, UniProt Q86WV6, G230A/H232R/R293Q/R71H) EC50 of CC[C@H]1COc2cc(C(N)=O)cc3nc(NC(=O)c4c(F)c(C)nn4CC)n1c23 only. > 5.2 µM

Send back STING (Homo sapiens, UniProt Q86WV6, G230A/H232R/R293Q/R71H) EC50 of CCn1nc(C)c(F)c1C(=O)Nc1nc2cc(C(N)=O)cc3c2n1[C@@H](C)CCO3 only. > 16.7 µM

Send back STING (Homo sapiens, UniProt Q86WV6, G230A/H232R/R293Q/R71H) EC50 of CCn1nc(C)c(F)c1C(=O)Nc1nc2cc(C(N)=O)cc3c2n1CC(C)(C)CO3 only. 19.8 µM

Send back STING (Homo sapiens, UniProt Q86WV6, G230A/H232R/R293Q/R71H) EC50 of CCn1nc(C)cc1C(=O)Nc1nc2cc(C(N)=O)cc3c2n1CC(C)(C)CN3CCO only. 9.9 µM

Send back STING (Homo sapiens, UniProt Q86WV6, G230A/H232R/R293Q/R71H) EC50 of CCn1nc(C)c(F)c1C(=O)Nc1nc2cc(C(N)=O)cc3c2n1CCCO3 only. > 11.6 µM

* * *

Assignment: determine reported Fold change related to DMSO control, WT for the given molecules.
System Under Test: STING variants (WT) (Homo sapiens)
Construct: host or cells: HEK-Blue ISG KO-STING cells (Invivogen, hkb-kostg)
Assay Info: SEAP reporter assay in HEK-Blue ISG KO-STING cells transfected with STING WT variant (Method 1)
Type: cell-based
Details: compound concentration 25 μM; 24 h
# output: bare number, implied unit fold

Supply recorded Fold change related to DMSO control, WT for CCn1nc(C)cc1C(=O)Nc1nc2cc(C(N)=O)cc3c2n1C(C)(CN(C)CCc1ccccc1)CO3 (stereo not shown) [Example 29] here. 1.06

Supply recorded Fold change related to DMSO control, WT for CCn1nc(C)cc1C(=O)Nc1nc2cc(C(N)=O)cc3c2n1C(C)(C)CO3 [Example 21] here. 2.18

Supply recorded Fold change related to DMSO control, WT for CCn1nc(C)cc1C(=O)Nc1nc2cc(C(N)=O)cc3c2n1[C@@H](CCNC(=O)/C=C/c1ccccc1OC)CO3 [Example 39] here. 2.78

Supply recorded Fold change related to DMSO control, WT for CCn1nc(C)cc1C(=O)Nc1nc2cc(C(N)=O)cc3c2n1CC(C)(C)CO3 [Example 27] here. 2.37

Supply recorded Fold change related to DMSO control, WT for CCn1nc(C)cc1C(=O)Nc1nc2cc(C(N)=O)cc3c2n1[C@@H](C(C)C)CO3 [Example 25] here. 2.24

Supply recorded Fold change related to DMSO control, WT for CC[C@H]1COc2cc(C(N)=O)cc3nc(NC(=O)c4cc(C)nn4CC)n1c23 [Example 26] here. 2.00

Supply recorded Fold change related to DMSO control, WT for CCn1nc(C)cc1C(=O)Nc1nc2cc(C(N)=O)cc3c2n1[C@@H](CCCNC(=O)OCc1cccnc1)CO3 [Example 32] here. 1.45

Supply recorded Fold change related to DMSO control, WT for CCn1nc(C)cc1C(=O)Nc1nc2cc(C(N)=O)cc3c2n1[C@@H](CCCNC(=O)/C=C/c1ccccc1)CO3 [Example 31] here. 2.71

Supply recorded Fold change related to DMSO control, WT for CCn1nc(C)cc1C(=O)Nc1nc2cc(C(N)=O)cc3c2n1[C@@H](CCNC(=O)OCc1ccccc1)CO3 [Example 14] here. 1.59

Supply recorded Fold change related to DMSO control, WT for CCn1nc(C)cc1C(=O)Nc1nc2cc(C(N)=O)cc3c2n1[C@@H](CCCNC(=O)COc1ccccc1)CO3 [Example 33] here. 2.49

These data points were gathered from patent US20240287093A1.
